Where these numbers come from: ChEMBL document CHEMBL1150069

System: Sclerotinia
Experiment: Antimicrobial activity against Sclerotinia libertiana Ss after 2 days by twofold serial broth dilution method
Conditions: 48 h
value kind: MIC

Example molecules with recorded MIC:
- molecule: "CC(=O)O[C@@H]1C=C(C=O)[C@](O)(C=O)[C@@]2(C)CCCC(C)(C)[C@H]12"
  recorded value: "> 100 µg/mL"
- molecule: "C=C1[C@@H](C)CC[C@@]2(C)[C@H]1CC=C(C=O)[C@]2(O)C=O"
  recorded value: "3.13 µg/mL"
- molecule: "CC1(C)CCC[C@]2(C)[C@H](C=O)C(C=O)=CC[C@@H]12 [EPIPOLYGODIAL]"
  recorded value: "> 100 µg/mL"
- molecule: "CC1(C)CCC[C@]2(C)[C@@H](C=O)C(C=O)=CC[C@@H]12"
  recorded value: "1.56 µg/mL"
- molecule: "CC1(C)CCC[C@@]2(C)[C@H]1CC=C(C=O)[C@]2(O)C=O"
  recorded value: "3.13 µg/mL"

From here, focus on the item given below.
Exercise: Request body: readout MIC, system Sclerotinia, query CC1(C)CCC[C@@]2(C)[C@H]1[C@@H](O)C=C(C=O)[C@]2(O)C=O . Return the value.
Solution: 100 µg/mL

###

Test system: Staphylococcus aureus
Assay: Antimicrobial activity against Staphylococcus aureus NCTC 8530 after 2 days by twofold serial broth dilution method
Assay type: functional
Settings: NCTC 8530, 48 h
value kind: MIC (µg/mL)
Answers are plain numbers, in µg/mL.

Example molecules with recorded MIC:
- smiles code: "CC(C)=CCc1cc([C@@H]2CC(=O)c3ccc(O)cc3O2)ccc1O"
  unit: "µg/mL"
  recorded value: 50
- smiles code: "CC(C)=CCc1cc([C@@H]2CC(=O)c3ccc(O)cc3O2)cc(CC=C(C)C)c1O"
  unit: "µg/mL"
  recorded value: 25
- smiles code: "COc1ccc2c(c1CC=C(C)C)O[C@H]1c3ccc(O)cc3OC[C@@]21O"
  unit: "µg/mL"
  recorded value: 12.5

From here, focus on the item given below.
Exercise: // query MIC value for entry CC1(C)C=Cc2c(ccc3c2O[C@H]2c4ccc(O)cc4OC[C@@H]32)O1
Solution: 12.5

###

Provide the recorded MIC for the entries that follow.
Test system: Aspergillus niger
Experiment: Antimicrobial activity against Aspergillus niger ATCC 6275 after 2 days by twofold serial broth dilution method
Format: functional
Conditions: ATCC 6275, 48 h
One number for each entry, in µg/mL.

Example compounds with recorded MIC:
- smiles code: "CC1(C)CCC[C@]2(C)[C@@H](C=O)C(C=O)=CC[C@@H]12"
  MIC (µg/mL): 25
- smiles code: "C=C1[C@@H](C)CC[C@@]2(C)[C@H]1CC=C(C=O)[C@]2(O)C=O"
  MIC (µg/mL): 50

Exercise: Request body: readout MIC, system Aspergillus niger, query CC1(C)CCC[C@@]2(C)[C@H]1CC=C(C=O)[C@]2(O)C=O . Return the value.
Solution: 50

###

Provide the recorded MIC for the entries that follow.
Test system: Staphylococcus aureus
Assay: Antimicrobial activity against Staphylococcus aureus NCTC 8530 after 2 days by twofold serial broth dilution method
Type: functional
Settings: NCTC 8530, 48 h
One number for each entry, in µg/mL.

Example molecules with recorded MIC:
- molecule: "CC(C)=CCc1cc(C2CC(=O)c3c(O)cc(O)cc3O2)cc(CC=C(C)C)c1O (stereo not drawn)"
  study system: "Staphylococcus aureus"
  MIC, µg/mL: 25
- molecule: "CC(C)=CCc1cc([C@@H]2CC(=O)c3c(O)cc(O)cc3O2)cc(CC=C(C)C)c1O"
  study system: "Staphylococcus aureus"
  MIC, µg/mL: 50
- molecule: "CC(C)=CCc1cc2c(cc1O)OC[C@H]1c3ccc(O)c(CC=C(C)C)c3O[C@@H]21"
  study system: "Staphylococcus aureus"
  MIC, µg/mL: 3.13

Exercise: // query MIC value for entry CC(C)=CCc1c(O)ccc2c1O[C@H]1c3ccc(O)cc3OC[C@@H]21
Solution: 50

###

Test system: Cyberlindnera jadinii
Assay: Antimicrobial activity against Candida utilis ATCC 42402 after 2 days by twofold serial broth dilution method
Format: functional
Conditions: Williopsis jadinii, ATCC 42402, 48 h
Provide the recorded MIC for the entries that follow.
Answers are plain numbers, in µg/mL.

Give MIC for all compounds that follow.
1. COc1ccc2c(c1CC=C(C)C)O[C@H]1c3ccc(O)cc3OC[C@@]21O [ERYTHRABYSSIN I]
2. CC(C)=CCc1cc([C@@H]2CC(=O)c3ccc(O)cc3O2)ccc1O [ABYSSINONE II]

Solution:
[50, 100]

Give MIC for all compounds that follow.
1. C=C1[C@@H](C)CC[C@@]2(C)[C@H]1CC=C(C=O)[C@]2(O)C=O
2. CC1(C)CCC[C@]2(C)[C@@H](C=O)C(C=O)=CC[C@@H]12 [POLYGODIAL]
3. CC1(C)C=Cc2c(ccc3c2O[C@H]2c4ccc(O)cc4OC[C@@H]32)O1 [PHASEOLIN]
4. CC(C)=CCc1cc(C2CC(=O)c3c(O)cc(O)cc3O2)cc(CC=C(C)C)c1O (stereo unspecified) [PHASEOLLIN]

Solution:
1. 3.13
2. 1.56
3. 50
4. 100

Exercise: // query MIC value for entry CC1(C)CCC[C@@]2(C)[C@H]1CC=C(C=O)[C@]2(O)C=O [WARBURGANAL]
Solution: 3.13

###

Tested on: Rhizopus microsporus var. chinensis
Assay: Antimicrobial activity against Rhizopus chinensis IFO 4772 after 2 days by twofold serial broth dilution method
Assay type: functional
Details: IFO 4772, 48 h
Provide the recorded MIC for the entries that follow.

- molecule: "CC(=O)O[C@@H]1C=C(C=O)[C@](O)(C=O)[C@@]2(C)CCCC(C)(C)[C@H]12"
  study system: "Rhizopus microsporus var. chinensis"
  MIC: "> 100 µg/mL"
- molecule: "C=C1[C@@H](C)CC[C@@]2(C)[C@H]1CC=C(C=O)[C@]2(O)C=O"
  study system: "Rhizopus microsporus var. chinensis"
  MIC: "100 µg/mL"
- molecule: "CC1(C)CCC[C@]2(C)[C@@H](C=O)C(C=O)=CC[C@@H]12"
  study system: "Rhizopus microsporus var. chinensis"
  MIC: "12.5 µg/mL"
- molecule: "CC1(C)CCC[C@@]2(C)[C@H]1[C@@H](O)C=C(C=O)[C@]2(O)C=O"
  study system: "Rhizopus microsporus var. chinensis"
  MIC: "> 100 µg/mL"
- molecule: "CC1(C)CCC[C@@]2(C)[C@H]1CC=C(C=O)[C@]2(O)C=O"
  study system: "Rhizopus microsporus var. chinensis"
  MIC: "100 µg/mL"

Exercise: // query MIC value for entry CC1(C)CCC[C@]2(C)[C@H](C=O)C(C=O)=CC[C@@H]12 [EPIPOLYGODIAL]
Solution: > 100 µg/mL

###

System: Staphylococcus aureus
Experiment: Antimicrobial activity against Staphylococcus aureus NCTC 8530 after 2 days by twofold serial broth dilution method
Format: functional
Settings: NCTC 8530, 48 h
value kind: MIC

- smiles code: "CC1(C)CCC[C@@]2(C)[C@H]1[C@@H](O)C=C(C=O)[C@]2(O)C=O"
  MIC: "> 100 µg/mL"
- smiles code: "C=C1[C@@H](C)CC[C@@]2(C)[C@H]1CC=C(C=O)[C@]2(O)C=O"
  MIC: "> 100 µg/mL"

Give MIC for all compounds that follow.
1. CC1(C)CCC[C@]2(C)[C@@H](C=O)C(C=O)=CC[C@@H]12
2. CC(=O)O[C@@H]1C=C(C=O)[C@](O)(C=O)[C@@]2(C)CCCC(C)(C)[C@H]12

Solution:
1: > 100 µg/mL; 2: > 100 µg/mL

###

Test system: Aspergillus niger
Test: Antimicrobial activity against Aspergillus niger ATCC 6275 after 2 days by twofold serial broth dilution method
Assay type: functional
Conditions: ATCC 6275, 48 h
value kind: MIC

- compound: "CC1(C)CCC[C@]2(C)[C@H](C=O)C(C=O)=CC[C@@H]12 [EPIPOLYGODIAL]"
  MIC: "> 100 µg/mL"
- compound: "CC1(C)CCC[C@@]2(C)[C@H]1[C@@H](O)C=C(C=O)[C@]2(O)C=O [MUKAADIAL]"
  MIC: "> 100 µg/mL"

Exercise: // query MIC value for entry CC(=O)O[C@@H]1C=C(C=O)[C@](O)(C=O)[C@@]2(C)CCCC(C)(C)[C@H]12 [CINNAMODIAL]
Solution: > 100 µg/mL
